Test system: HCT116;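 note: HCT116 colorectal carcinoma cells screened at five concentrations per compound, luminescent viability scaled between DMSO wells and empty wells on each plate, curves fitted per compound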
experimentalDetails: AC50 cell viability (CellTiter-Glo); higher = less potent
testSettings: 48 h
Flag rule - AC50 cell viability less than 10 µM flags Y; the remaining entries get N.

COc1ccc(Cl)c(Nc2nc3ccccc3nc2N[S+](=O)([O-])c2cccc(NC(=O)C(C)(C)N)c2)c1 | N
CN(c1ncccc1CNc1nc(Nc2ccc3c(c2)CC(=O)N3)ncc1C(F)(F)F)[S+](C)(=O)[O-] | Y
CC1(C)C(=O)N(c2ccc(C#N)c(C(F)(F)F)c2)C(=S)N1Cc1ccc(-c2c[nH]nn2)cc1 [BG-15a] | N
Nc1ncnc2c1c(-c1cccc(OCc3ccccc3)c1)cn2[C@H]1C[C@@H](CN2CCC2)C1 | Y
COc1nc(OCc2cccc(-c3ccccc3)c2C)ccc1CNCCNC(C)=O | N

Problem: For the molecule OC[C@H]1O[C@H](C[C@@H]1O)N2\C=C(\I)C(=O)NC2=O , is AC50 cell viability under 10 µM?
N

Problem: For the molecule O=C(C(c1ccccc1)c1ccccc1)N1CCN(CC(O)COc2cccc3ncccc23)CC1 (stereo not given) , is AC50 cell viability under 10 µM?
N

Problem: For the molecule CCc1ccc(C(=O)Nc2cc(CN3CCN(C)CC3)cc(C(F)(F)F)c2)cc1C#Cc1cnc2ccnn2c1 , is AC50 cell viability under 10 µM?
Y
